Data origin: PubChem BioAssay AID434951

Biological target: Hypoxia-inducible factor 1-alpha (Homo sapiens)
Experiment: activators of HIF1alpha nuclear accumulation, confirmation, imaging, fluorescence, U2OS GFP-HIF1alpha (AID 434951)
Details: U2OS GFP-HIF1alpha nuclear intensity, high-content imaging
Active and inactive are the calls of the source.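 The calls were made as follows: active = a fitted half-maximal concentration EC50 for the rise in nuclear signal no higher than ten times the top dose tested; inconclusive = flat fit with activity between 30% and 70%, or unusable fit; inactive = EC50 beyond ten times the top dose.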
Write down the outcome that applies. Available outcomes: yes (1) for active, no (0) for inactive

| compound | discrete.label |
| --- | --- |
| CC(=O)NC(c1ccc(Cl)cc1Cl)c1ccc2cccnc2c1O (stereo unspecified) | yes (1) |
| COc1ccc(/C=N/NC(=O)c2ccccc2O)cc1CSc1ccccn1 | no (0) |
| Cc1cc(C)c2nc(N3CCN(C(=O)c4ccco4)CC3)sc2c1 | no (0) |

Call for entry `Cc1onc(-c2ccccc2)c1C(=O)Nc1ccc(S(=O)(=O)N2CCCC2)cc1` : no (0)

Again, but for `O=C(N/N=C/c1c(O)ccc2ccccc12)c1cccc(C(F)(F)F)c1` yes (1)

Again, but for CC(=O)N1c2ccc(S(=O)(=O)NCCc3ccccc3)cc2CC1C (stereo unspecified) no (0)

Again, but for `C1CC1Cc1noc(CN2CCN(CC3CC3)CC2)n1` no (0)

Again, but for `Cc1ccc(NC(=O)Nc2cccc(F)c2)nc1` no (0)

Again, but for `CCCc1nc2ccccc2c(=O)n1/N=C/c1ccccc1O` no (0)

Again, but for `O=c1cc(CO)[nH]cc1OCc1ccccc1` no (0)

Again, but for `O=C(NCc1ccco1)c1cc(-c2cccs2)on1` yes (1)

Again, but for `COc1ccc(/C=N/NC(=O)c2nc(-c3ccccc3)n(-c3ccccc3)n2)c(O)c1` yes (1)

Again, but for `O=C(N/N=C/c1cc(Br)ccc1O)c1ccncc1` no (0)

Again, but for `O=C(N/N=C/c1cc([N+](=O)[O-])ccc1O)c1cccc2cc[nH]c12` yes (1)

Again, but for `COc1cccc(/C=N/Nc2ncnc3c2ncn3Cc2ccccc2)c1O` yes (1)

Again, but for `Cc1cc(C)nc(Sc2ncnc(N)c2[N+](=O)[O-])n1` yes (1)
